- Assay Details: Plasma protein binding
- Assay type: in vitro ADME
- Study Conditions: n = 6, read-out: plasma protein binding rate (converted)
Recorded Metric: fraction unbound
Write the number on its own, no unit after it.

Returns the measured fraction unbound for the input molecule. Input: O=C(O)c1ccccc1NC(=O)c1cccc2cccnc12 [2-QBA, 2-(quinoline-8-carboxamido)benzoic acid]
0.128

====

- Assay Details: Pharmacokinetics after PO administration in mice
- Format: in vivo
- Study Conditions: male, ICR, mouse, plasma, PO 2 mg/kg
Recorded Metric: AUC(0-inf) (ng·h/mL)
Respond with the bare value in ng·h/mL.

Item under review: O=C(O)c1ccccc1NC(=O)c1cccc2cccnc12 [2-QBA, 2-(quinoline-8-carboxamido)benzoic acid] . Reported AUC(0-inf)?
1430

====

- Assay Details: Effect of activated charcoal (AC) on the pharmacokinetics of 2-QBA
- Format: in vivo
- Study Conditions: male, ICR, mouse, plasma, po, 2 mg/kg, mice, PO 2 mg/kg, AC (0.8 g/kg); read-out: AUC24h
Recorded Metric: AUC(0-t) (ng·h/mL)
Give the value in ng·h/mL but do not write ng·h/mL after it.

Which value of AUC(0-t) has been reported for O=C(O)c1ccccc1NC(=O)c1cccc2cccnc12 [2-QBA, 2-(quinoline-8-carboxamido)benzoic acid] in the records?
650

====

- Assay Details: Pharmacokinetics after PO administration in mice
- Type: in vivo
- Study Conditions: male, ICR, mouse, plasma, PO 15 mg/kg, read-out: Cmax,1
Recorded Metric: Cmax (ng/mL)
Record the value in ng/mL, omitting the unit from your answer.

// Cmax lookup, key: O=C(O)c1ccccc1NC(=O)c1cccc2cccnc12
2460

====

- Assay Details: Intestinal permeability in Ussing chamber
- Type: in vitro ADME, mice
- Study Conditions: mouse; 20 μM donor, HBSS pH 7.4; range over jejunum, upper and lower ileum; read-out: absorptive permeability
Recorded Metric: Papp A→B at 2 h, 20 μM

Which Papp A→B at 2 h, 20 μM is listed for O=C(O)c1ccccc1NC(=O)c1cccc2cccnc12 ?
4.46 to 10 ×10⁻⁶ cm/s

====

- Assay Details: Pharmacokinetics after PO administration in mice
- Format: in vivo
- Study Conditions: male, ICR, mouse, plasma, PO 15 mg/kg
- Experimental: Male ICR mice (7 weeks old, […]; Samtako, Osan, Korea) were acclimated to the animal facility at Kyungpook National University for one week with free access to animal chow and water. […] WinNonlin 5.1 software (Pharsight Co., Mountain View, CA, USA) was used to calculate the pharmacokinetic parameters. […] CL is the total clearance, which is calculated by dividing the dose by AUCinf. Vdss is the volume of the distribution at a steady state, calculated from MRTxCL. […]
Recorded Metric: AUC(0-inf) (µg·h/mL)
Write it as a number; the unit µg·h/mL goes unstated.

AUC(0-inf) lookup needed for O=C(O)c1ccccc1NC(=O)c1cccc2cccnc12 , thanks.
11

====

- Assay Details: Pharmacokinetics after IV administration in mice
- Type: in vivo
- Study Conditions: male, ICR, mouse, IV 1.0 mg/kg, plasma, read-out: Vdss
Recorded Metric: Vd (L/kg)
# unit: L/kg | format: bare number

Would you mind telling me what Vd value was observed for O=C(O)c1ccccc1NC(=O)c1cccc2cccnc12 ?
2.88

====

- Assay Details: Pharmacokinetics after IV administration in mice
- Type: in vivo
- Study Conditions: male, ICR, mouse, IV 0.5 mg/kg, plasma
Recorded Metric: clearance (mL/min/kg)
Supply the numeric figure in mL/min/kg, leaving out any unit text.

I am curious: what clearance value has been reported for O=C(O)c1ccccc1NC(=O)c1cccc2cccnc12 ?
20

====

- Assay Details: Pharmacokinetics after PO administration in mice
- Type: in vivo
- Study Conditions: male, ICR, mouse, plasma, PO 5 mg/kg, read-out: Cmax,1
Recorded Metric: Cmax
Param answer (str): number followed by unit.

Suppose we examine the compound O=C(O)c1ccccc1NC(=O)c1cccc2cccnc12 ; what Cmax value has been reported?
752 ng/mL

====

- Assay Details: Pharmacokinetics after IV administration in mice
- Assay type: in vivo
- Study Conditions: male, ICR, mouse, IV 0.5 mg/kg, plasma
Recorded Metric: half-life
Note: a bare number is incomplete; add the unit.

Name the recorded half-life for O=C(O)c1ccccc1NC(=O)c1cccc2cccnc12 .
4.61 h

====

- Assay Details: Pharmacokinetics after PO administration in mice
- Format: in vivo
- Study Conditions: male, ICR, mouse, plasma, po, PO 2-15 mg/kg, read-out: Tmax,1 (range over doses)
Recorded Metric: Tmax

Fill blank: measured Tmax of the compound O=C(O)c1ccccc1NC(=O)c1cccc2cccnc12 is ____.
12 to 18 min

====

- Assay Details: Effect of activated charcoal (AC) on the pharmacokinetics of 2-QBA
- Assay type: in vivo
- Study Conditions: male, ICR, mouse, plasma, po, 2 mg/kg, mice, PO 2 mg/kg, Control
Recorded Metric: Cmax (ng/mL)
Express the result in ng/mL but write the number alone.

Form field: reported Cmax of O=C(O)c1ccccc1NC(=O)c1cccc2cccnc12
399

====

- Assay Details: Pharmacokinetics after PO administration in mice
- Assay type: in vivo
- Study Conditions: male, ICR, mouse, plasma, po, PO 2-15 mg/kg, read-out: Tmax,2 (range over doses)
Recorded Metric: Tmax

Entry O=C(O)c1ccccc1NC(=O)c1cccc2cccnc12 [2-QBA, 2-(quinoline-8-carboxamido)benzoic acid] has what Tmax?
3.5 to 5.6 h

====

- Assay Details: Effect of activated charcoal (AC) on the pharmacokinetics of 2-QBA
- Format: in vivo
- Study Conditions: male, ICR, mouse, plasma, intravenous, 1 mg/kg, mice, IV 1 mg/kg, AC (0.8 g/kg) PO 2 h after dosing; read-out: AUC24h
Recorded Metric: AUC(0-t) (ng·h/mL)
The answer is to be given in ng·h/mL; state only the numeric part.

What AUC(0-t) value was documented for this compound, O=C(O)c1ccccc1NC(=O)c1cccc2cccnc12 ?
1180

====

- Assay Details: Effect of activated charcoal (AC) on the pharmacokinetics of 2-QBA
- Type: in vivo
- Study Conditions: male, ICR, mouse, plasma, po, 2 mg/kg, mice, PO 2 mg/kg, AC (0.8 g/kg)
Recorded Metric: MRT (h)
Provide the reading as a plain figure in h.

Given O=C(O)c1ccccc1NC(=O)c1cccc2cccnc12 [2-QBA, 2-(quinoline-8-carboxamido)benzoic acid] , state its recorded MRT.
7

====

- Assay Details: Urinary and fecal excretion after IV or PO administration (metabolic cage)
- Assay type: in vivo
- Study Conditions: male, ICR, mouse, urine; mice, IV 1.0 mg/kg
Recorded Metric: CL renal (mL/min/kg)
Supply the numeric figure in mL/min/kg, leaving out any unit text.

Return reported CL renal; argument: O=C(O)c1ccccc1NC(=O)c1cccc2cccnc12
5.47

====

- Assay Details: Effect of activated charcoal (AC) on the pharmacokinetics of 2-QBA
- Assay type: in vivo
- Study Conditions: male, ICR, mouse, plasma, po, 2 mg/kg, mice, PO 2 mg/kg, Control
- Description: To elucidate the reabsorption mechanism of 2-QBA, a pharmacokinetic study of 2-QBA was conducted with activated charcoal (AC) administered PO. Male ICR mice (7 weeks old, 25–30 g) were fasted for 14–16 h prior to the administration of 2-QBA. […] WinNonlin 5.1 software (Pharsight Co., Mountain View, CA, USA) was used to calculate the pharmacokinetic parameters. […] CL is the total clearance, which is calculated by dividing the dose by AUCinf. […] All data are expressed as the mean ± standard deviation (SD).
Recorded Metric: AUC(0-inf) (ng·h/mL)
Write the number in ng·h/mL without appending the unit.

# AUC(0-inf) lookup, item O=C(O)c1ccccc1NC(=O)c1cccc2cccnc12
2110

====

- Assay Details: Effect of activated charcoal (AC) on the pharmacokinetics of 2-QBA
- Assay type: in vivo
- Study Conditions: male, ICR, mouse, plasma, iv, 1 mg/kg, mice, IV 1 mg/kg, Control
Recorded Metric: clearance (mL/min/kg)
State just the number; it will be interpreted in mL/min/kg.

I'd like to know its clearance. The compound in question is O=C(O)c1ccccc1NC(=O)c1cccc2cccnc12 [2-QBA, 2-(quinoline-8-carboxamido)benzoic acid]
13.9

====

- Assay Details: Effect of activated charcoal (AC) on the pharmacokinetics of 2-QBA
- Type: in vivo
- Study Conditions: male, ICR, mouse, plasma, iv, 1 mg/kg, mice, IV 1 mg/kg, Control
Recorded Metric: MRT (h)
The reply should be a number in h, with the unit left off.

Reported MRT for O=C(O)c1ccccc1NC(=O)c1cccc2cccnc12 : what is it?
2.88

====

- Assay Details: Pharmacokinetics after PO administration in mice
- Format: in vivo
- Study Conditions: male, ICR, mouse, plasma, PO 2.0, 5.0 and 15 mg/kg, read-out: absolute oral bioavailability (BA) range
- Procedure: Male ICR mice (7 weeks old, […]; Samtako, Osan, Korea) were acclimated to the animal facility at Kyungpook National University for one week with free access to animal chow and water. […] WinNonlin 5.1 software (Pharsight Co., Mountain View, CA, USA) was used to calculate the pharmacokinetic parameters. […] CL is the total clearance, which is calculated by dividing the dose by AUCinf. Vdss is the volume of the distribution at a steady state, calculated from MRTxCL. […]
Recorded Metric: bioavailability

Give the measured bioavailability of O=C(O)c1ccccc1NC(=O)c1cccc2cccnc12 .
68.3 to 83.7%
